Task for the reader: assign each of the following compounds its reported pIC50.
Give bare numbers, as −log10 of the molar value.

Input line: Using the record for CCCOCN(C(=O)[C@@H](NC(=O)[C@H]1CCCCN1C)[C@@H](C)CC)[C@H](C[C@@H](OC(C)=O)c1nc(C(=O)N[C@@H](Cc2ccc(O)cc2)C[C@H](C)C(=O)NNC(=O)OCCSSC[C@H](NC(=O)[C@H](CC(=O)O)NC(=O)[C@H](CC(=O)O)NC(=O)Cc2ccc(CNC(=O)NCCCC[C@H](NC(=O)N[C@@H](CCC(=O)O)C(=O)O)C(=O)O)cc2)C(=O)O)cs1)C(C)C , report its pIC50.
Output line: 7.75

Input line: Using the record for CCCCOCN(C(=O)[C@@H](NC(=O)[C@H]1CCCCN1C)[C@@H](C)CC)[C@H](C[C@@H](OC(C)=O)c1nc(C(=O)N[C@@H](Cc2ccc(O)cc2)C[C@H](C)C(=O)NNC(=O)OCCSSC[C@H](NC(=O)[C@H](CC(=O)O)NC(=O)[C@H](CC(=O)O)NC(=O)Cc2ccc(CNC(=O)NCCCC[C@H](NC(=O)N[C@@H](CCC(=O)O)C(=O)O)C(=O)O)cc2)C(=O)O)cs1)C(C)C , report its pIC50.
Output line: 7.68

New cases:
Input line: Using the record for CCCCCOCN(C(=O)[C@@H](NC(=O)[C@H]1CCCCN1C)[C@@H](C)CC)[C@H](C[C@@H](OC(C)=O)c1nc(C(=O)N[C@@H](Cc2ccc(O)cc2)C[C@H](C)C(=O)NNC(=O)OCCSSC[C@H](NC(=O)[C@H](CC(=O)O)NC(=O)[C@H](CC(=O)O)NC(=O)Cc2ccc(CNC(=O)NCCCC[C@H](NC(=O)N[C@@H](CCC(=O)O)C(=O)O)C(=O)O)cc2)C(=O)O)cs1)C(C)C , report its pIC50.
Output line: 7.43

---

# experimental.system: PSMA (Homo sapiens)
# Construct: endogenous in cells; host or cells: LNCaP cells
# Sequence (Q04609 whole entry): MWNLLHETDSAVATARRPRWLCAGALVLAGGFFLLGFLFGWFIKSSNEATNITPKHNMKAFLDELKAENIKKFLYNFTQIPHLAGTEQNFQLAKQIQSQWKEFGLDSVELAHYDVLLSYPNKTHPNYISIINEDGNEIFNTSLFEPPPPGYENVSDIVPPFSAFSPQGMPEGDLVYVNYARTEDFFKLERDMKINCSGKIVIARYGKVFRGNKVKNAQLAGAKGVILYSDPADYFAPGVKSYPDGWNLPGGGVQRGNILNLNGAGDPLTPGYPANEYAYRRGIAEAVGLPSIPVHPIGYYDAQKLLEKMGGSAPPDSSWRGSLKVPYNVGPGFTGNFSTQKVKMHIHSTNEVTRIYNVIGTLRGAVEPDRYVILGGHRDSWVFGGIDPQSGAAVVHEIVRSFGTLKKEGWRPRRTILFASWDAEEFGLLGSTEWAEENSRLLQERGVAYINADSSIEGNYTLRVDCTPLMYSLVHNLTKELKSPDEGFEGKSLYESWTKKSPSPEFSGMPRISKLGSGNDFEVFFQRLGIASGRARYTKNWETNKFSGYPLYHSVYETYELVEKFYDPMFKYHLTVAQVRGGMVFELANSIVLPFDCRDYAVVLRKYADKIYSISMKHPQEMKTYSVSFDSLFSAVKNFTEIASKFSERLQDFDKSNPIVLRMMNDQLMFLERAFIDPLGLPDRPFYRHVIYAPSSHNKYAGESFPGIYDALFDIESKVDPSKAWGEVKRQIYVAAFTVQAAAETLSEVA
# Format: binding
measured.property: Relative PSMA Binding Affinity (fold over PMPA = 1.0) (fold)
Numbers only, in fold.

Input line: Using the record for CCCC(=O)OCN(C(=O)[C@@H](NC(=O)[C@H]1CCCCN1C)C(C)CC)[C@H](C[C@@H](OC(C)=O)c1nc(C(=O)N[C@@H](Cc2ccc(O)cc2)C[C@H](C)C(=O)NNC(=O)OCCSSC[C@H](NC(=O)[C@H](Cc2ccccc2)NC(=O)[C@H](CC(=O)O)NC(=O)NCCCC[C@H](NC(C)=O)C(=O)O)C(=O)O)cs1)C(C)C (some centres unmarked) [EC1568, reference compound] , report its Relative PSMA Binding Affinity (fold over PMPA = 1.0).
Output line: 0

Shifting focus to the compound that follows.
Input line: Using the record for O=C(O)CC[C@H](NC(=O)N[C@@H](CCCCNC(=O)NCc1ccc(CC(=O)N[C@@H](CC(=O)O)C(=O)N[C@@H](CC(=O)O)C(=O)NCC(=O)O)cc1)C(=O)O)C(=O)O [EC1168] , report its Relative PSMA Binding Affinity (fold over PMPA = 1.0).
Output line: 17

---

# experimental.system: PSMA (Homo sapiens)
# Construct: endogenous in cells; host or cells: LNCaP cells
# Format: binding
# Procedure: PSMA relative affinity assay. LNCaP cells are seeded in 12-well Corning Cell-BIND plates and allowed to form adherent monolayers overnight in RPMI/HIFCS. […] Five hundred microliters of 1% sodium dodecylsulfate in PBS are added to each well; after 5 min, cell lysates are collected, transferred to individual tubes or to vials containing 5 mL of scintillation cocktail, and then counted for radioactivity. […]
measured.property: Relative PSMA Binding Affinity (fold over PMPA = 1.0) (fold)
Answers are plain numbers, in fold.

Look over these answered cases.
Input line: Using the record for O=C(O)CC[C@H](NC(=O)N[C@@H](CCCCNC(=O)Nc1ccc(CC(=O)N[C@@H](CC(=O)O)C(=O)N[C@@H](CC(=O)O)C(=O)N[C@@H](CS)C(=O)O)cc1)C(=O)O)C(=O)O , report its Relative PSMA Binding Affinity (fold over PMPA = 1.0).
Output line: 30

Input line: Using the record for O=C(O)CC[C@H](NC(=O)N[C@@H](CCCCNC(=O)Nc1ccc(CC(=O)O)cc1)C(=O)O)C(=O)O , report its Relative PSMA Binding Affinity (fold over PMPA = 1.0).
Output line: 6

Shifting focus to the compound that follows.
Input line: Using the record for CCCC(=O)OCN(C(=O)[C@@H](NC(=O)[C@H]1CCCCN1C)C(C)CC)[C@H](C[C@@H](OC(C)=O)c1nc(C(=O)N[C@@H](Cc2ccc(O)cc2)C[C@H](C)C(=O)NNC(=O)OCCSSC[C@H](NC(=O)[C@@H](CC(=O)O)NC(=O)[C@@H](CC(=O)O)NC(=O)Cc2ccc(CNC(=O)NCCCC[C@H](NC(=O)N[C@@H](CCC(=O)O)C(=O)O)C(=O)O)cc2)C(=O)O)cs1)C(C)C (stereo partly drawn) , report its Relative PSMA Binding Affinity (fold over PMPA = 1.0).
Output line: 20
